System: NCI-H522 lung
Test: NCI-60 one-dose screen, 48 h
Conditions: 10 µM unless noted
The panel holds about 83,000 compounds, 20% with a hit somewhere; the sample as a whole holds those more often. Active and inactive are the calls of the source. The calls were made as follows: active = growth percent below 10; inactive = the rest.
API: response.call in true (1) = active, false (0) = inactive

| COMPOUND | MEASURED_ON | CATEGORY |
| --- | --- | --- |
| CSc1nnc(-c2cc3c([nH]c4ccccc43)c(-c3cccc(O)c3)n2)n1-c1ccc(C)cc1 | NCI-H522 lung | true (1) |
| O=C1CCc2c(sc3[nH]c(=S)n(Cc4ccc(Cl)cc4)c(=O)c23)C1 | NCI-H522 lung | true (1) |
| CCOC(=O)c1c(-c2ccc(OC)cc2)c(C#N)c2c(C#N)c(N)nn2c1N | NCI-H522 lung | true (1) |
| CC1=CC=C(NC(=O)/C=C/c2ccccc2)CC1Nc1nccc(-c2cccnc2)n1 (centres undefined) | NCI-H522 lung | false (0) |
| CN1CCN(C(=O)OCc2nc3c(N4CCOCC4)nc(Cl)nc3n2C)CC1 | NCI-H522 lung | true (1) |
| N#CSc1c[nH]c2ccc(/C=C/C(=O)/C=C(/C=C/c3ccc4[nH]cc(SC#N)c4c3)OB(F)F)cc12 | NCI-H522 lung | true (1) |
| CCCCCCCCCCCCCCCCCCn1cc(COc2ccc(C=O)cc2)nn1 | NCI-H522 lung | false (0) |
| O=c1cc(N/N=C/c2ccc(F)cc2)c2cc(Cl)ccc2[nH]1 | NCI-H522 lung | false (0) |
| COc1ccc(-c2cc(-c3cc(OC)c(OC)c(OC)c3)c(C#N)c(=O)n2CCCCC(=O)O)cc1 | NCI-H522 lung | false (0) |
| N#CC(Cc1cccc2ccccc12)c1cc2ccccc2[nH]1 (centres undefined) | NCI-H522 lung | false (0) |

INPUT: Outcome logged for `C[C@@H]1CC[C@@H]2[C@@H]1[C@H](OC(=O)/C=C/c1ccccc1)[C@]1(c3ccccc3)C[C@@H](NC(=O)CO)[C@@]2(C)O1` in this assay:
OUTPUT: false (0)

INPUT: Dear colleague, could you share the recorded outcome for `CCN(CC)CC#CCOC(=O)[C@]1(C)CCC[C@]2(C)c3ccc(C(C)C)cc3CC[C@@H]12` when you have a moment?
OUTPUT: false (0)

INPUT: Could you kindly confirm the outcome this assay logged for CC(=O)N1N=C(c2ccc(Nc3nc(Nc4ccc(F)cc4)nc(Nc4ccc(F)cc4)n3)cc2)CC1c1ccccc1 (centres undefined) ?
OUTPUT: false (0)
